Target System: EP2 prostanoid receptor (Homo sapiens)
Construct: host or cells: CHO-K1
Sequence (P43116 whole entry): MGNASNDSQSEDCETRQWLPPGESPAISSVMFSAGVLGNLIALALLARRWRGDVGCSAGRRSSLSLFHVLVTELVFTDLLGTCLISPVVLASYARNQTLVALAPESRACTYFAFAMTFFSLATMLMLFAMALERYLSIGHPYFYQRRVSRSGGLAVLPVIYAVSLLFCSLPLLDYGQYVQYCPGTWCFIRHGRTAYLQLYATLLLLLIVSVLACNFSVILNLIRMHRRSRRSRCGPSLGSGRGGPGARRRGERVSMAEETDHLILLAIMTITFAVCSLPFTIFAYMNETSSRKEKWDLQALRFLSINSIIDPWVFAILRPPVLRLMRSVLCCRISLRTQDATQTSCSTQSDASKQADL
Protocol: GloSensor cAMP assay in CHO-K1 cells co-transfected with the EP2 receptor
Assay type: cell-based
Test Context: 4.5 hr incubation time; read-out: EC50 (μM) 4.5 hr
Here, each record is paired with measured EC50 data.
// return numeric value only (unit: µM, not printed)

Worked cases, EC50 given:
Compound: CCCCC[C@H](O)CC[C@@H]1[C@H]2Cc3cccc(OCC(=O)OCC)c3C[C@H]2C[C@H]1O [Compound C2-TR, treprostinil ethyl ester]
Measured Metric: EC50
Units Text: µM
Numeric Readout: 1.84
--
Compound: CCCCCCCCOC(=O)COc1cccc2c1C[C@H]1C[C@@H](O)[C@H](CC[C@@H](O)CCCCC)[C@H]1C2 [Compound C8-TR, treprostinil octyl ester]
Measured Metric: EC50
Units Text: µM
Numeric Readout: 1.41
--
Compound: CCCCCCCCCCCCOC(=O)COc1cccc2c1C[C@H]1C[C@@H](O)[C@H](CC[C@@H](O)CCCCC)[C@H]1C2 [Compound C12-TR, dodecyl-treprostinil]
Measured Metric: EC50
Units Text: µM
Numeric Readout: 3.17

Prompt: Need EC50 of CCCCC[C@H](O)CC[C@@H]1[C@H]2Cc3cccc(OCC(=O)O)c3C[C@H]2C[C@H]1O [Treprostinil] , thanks.
Response: 0.2
